- System: NCI-H23 lung
- protocol_details: NCI tumour cell line growth inhibition, 48 h

compound	result_operator	TGI, µM
Cn1c2c(c3c(Cl)nncc31)Cc1ccccc1-2	=	49
Cc1cn(Cc2ccc(C34CC5CC(CC(C5)C3)C4)c(O)c2)c(=O)[nH]c1=O	=	20.7
CCCCCCCCCCCCOC1C(CNC(=O)C2OC3OC(C)(C)OC3C2NC(=O)CN2CCN(c3ccc(OC)cc3)CC2)OC2OC(C)(C)OC21 (stereo not given)	=	32
O=C(CSCC(=O)N/N=C\c1cccc([N+](=O)[O-])c1)N/N=C\c1cccc([N+](=O)[O-])c1	=	31.1
C=C1C(=O)O[C@H]2C1C[C@@H](OC(C)=O)/C(C)=C/CC[C@@]1(C)O[C@H]21 (stereo not given in full)	=	37.2
OC(CN(CCCl)CCCl)C(O)C(O)C(O)CN(CCCl)CCCl (stereo not given)	>	100
CC1C2C=C(O)C(=O)C(C2=O)C1c1ccccc1 (stereo not given)	>	100
COc1ccccc1C(O)[C@@H]1C[C@@H]2[C@H]3CC[C@@](C)([C@@H]2O1)C3(C)C (stereo not given in full)	=	50.5
CCNC(=O)Oc1ccc(/C(=C(/C)Cc2ccc(OC)cc2)c2ccc(OCCN(CC)CC)cc2)cc1	=	5.35
CC1=C(O)c2ccccc2C(=O)C1=O	>	100

----------
# maps each entry to its TGI
- System: M14 melanoma
- protocol_details: NCI tumour cell line growth inhibition, 48 h

compound	tested_target	TGI
Cn1cc(-c2cnn3c(N)c(Br)c(C4CCCNC4)nc23)cn1 (centres undefined)	M14 melanoma	16.8 µM
CN(C)c1c(C2OC(CO)C(O)C2O)c(=O)c1=O (centres undefined)	M14 melanoma	> 100 µM
COc1ccc2c(c1)/C(=C\c1c(Cl)[nH]c3ccccc13)C(=O)N2	M14 melanoma	16.2 µM
CCN(CC)CSc1nc2ccccc2[nH]1	M14 melanoma	> 100 µM
CC1=CC[C@@]2(C)CC[C@](O)(C(C)C)C2C(OC(=O)c2ccccc2)C1 (some centres undefined)	M14 melanoma	37.8 µM
CCc1ccc(COC(=O)C2=C(C)NC(C)=C(C(=O)OCc3ccc(CC)cn3)C2C2=COCCO2)nc1	M14 melanoma	31.1 µM
C=CCOC(=O)C1=C(C)NC2=N[C@H](CCCCCCCCC)C[C@@H]3CCC1N23 (some centres undefined)	M14 melanoma	37.6 µM
CC(=O)O[C@H]1C(=O)[C@@]2(C)[C@H]([C@H](OC(=O)c3ccccc3)[C@]3(O)C[C@H](OC(=O)[C@H](O)[C@@H](NC(=O)c4ccco4)c4ccccc4)C(C)=C1C3(C)C)[C@]1(OC(C)=O)CO[C@@H]1C[C@@H]2O	M14 melanoma	> 12.5 µM
O=C(c1ccc(Cl)cc1)C(O)c1ccc(Cl)cc1 (centres undefined)	M14 melanoma	> 100 µM

----------
# maps each entry to its TGI
- Test system: OVCAR-8 ovarian
- protocol_details: NCI tumour cell line growth inhibition, 48 h

compound	result_operator	TGI (µM)
Cc1ccc2nc(C(C)C)c(=O)[nH]c2c1	>	100
CC1CCC2CC(=O)OC([C@@H]3C(=O)O[C@@H](C4=CCCC4)C4C(C)CCC43)C12 (stereo not given in full)	>	100
Cc1cccc2sc(-c3ccc(O)cc3)nc12	=	31.8
CO[C@H]1CC(O[C@@H]2/C(C)=C/C[C@@H]3C[C@@H](C[C@]4(CC[C@H](C)[C@@H](C5CCCCC5)O4)O3)OC(=O)[C@@H]3C=C(C)/C(=N/O)[C@H]4OC/C(=C\C=C\[C@@H]2C)[C@]43O)O[C@@H](C)C1O (stereo not given in full)	=	2.41
COc1ccc(N=NC(=O)NC(CC(C)C)C(=O)NCC(=O)O)cc1 (stereo not given)	>	100
O=c1c(Cl)c(Cl)cnn1CCCl	=	10.9
CCC(C)[C@@H](Nc1c(O)c2c(c(O)c1Cl)C(=O)C=CC2=O)C(=O)OC (stereo not given in full)	>	10
CC(C)=CCCC(C)CCOS(=O)C(F)(F)F (stereo not given)	>	100
COC(=O)c1cc2c3ccccc3n3c2c(n1)-c1[nH]c2ccccc2c(=O)c1C3	>	100
N[C@@H]1CCN(c2c(F)cc3c(=O)c(C(=O)O)cn4c3c2Oc2cc3c(ccc5ccccc53)cc2-4)C1	=	18.1
